The reported measurements were obtained from patent US8338465B2.

Some compounds, each annotated with its measured pIC50.
- Experimental Target: dihydrolipoamide acyltransferase (DlaT) (Mycobacterium tuberculosis)
- Sequence (P9WIS7 1-553): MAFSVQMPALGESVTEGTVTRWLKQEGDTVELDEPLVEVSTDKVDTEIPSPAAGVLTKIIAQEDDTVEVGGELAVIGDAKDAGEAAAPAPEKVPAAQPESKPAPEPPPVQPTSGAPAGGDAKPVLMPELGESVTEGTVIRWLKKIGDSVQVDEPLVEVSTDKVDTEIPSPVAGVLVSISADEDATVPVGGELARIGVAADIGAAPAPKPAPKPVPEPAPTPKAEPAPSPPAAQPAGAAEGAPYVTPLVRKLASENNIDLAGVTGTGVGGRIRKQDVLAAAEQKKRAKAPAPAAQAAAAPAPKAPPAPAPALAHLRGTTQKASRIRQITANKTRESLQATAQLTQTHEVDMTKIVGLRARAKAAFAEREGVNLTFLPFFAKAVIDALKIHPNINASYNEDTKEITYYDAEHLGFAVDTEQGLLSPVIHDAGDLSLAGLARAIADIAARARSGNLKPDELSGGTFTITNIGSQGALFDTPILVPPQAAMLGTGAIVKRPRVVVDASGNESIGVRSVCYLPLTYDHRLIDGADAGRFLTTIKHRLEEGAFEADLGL
- Test Summary: DlaT inhibition (Dlat IC50); DTNB peroxidase assay with Lpd, DlaT and AhpD
- Format: biochemical
- Measurement Conditions: Table 1, Compounds A1 to A294; read-out: Dlat IC50 category
pIC50: −log10 of the molar value.

Consider the reported pIC50 for these compounds:
{"columns": ["Compound", "pIC50"],
 "data": [
  ["CC(C)(c1ccccc1)c1ccc(-c2ccc(C=C3SC(=S)N(c4cc(C(=O)O)ccc4Cl)C3=O)o2)cc1 [Compound A96]", "> 5.00"],
  ["COc1ccc(C)cc1-c1ccc(C=C2SC(=S)N(c3cccc(C(=O)O)c3)C2=O)o1 [Compound A253]", "> 5.00"],
  ["O=C(O)c1ccc(F)c(N2C(=O)C(=Cc3ccc(-c4ccc(C5CCCCC5)cc4)o3)SC2=S)c1 [Compound A101]", "> 5.00"],
  ["O=C(O)c1ccc(-c2ccc(C=C3SC(=S)N(c4ccccc4)C3=O)o2)cc1O [Compound A289]", "> 5.00"]
]}

dihydrolipoamide acyltransferase (DlaT) (Mycobacterium tuberculosis) data for O=C(O)c1cc(N2C(=O)C(=Cc3ccc(-c4ccccc4Cl)o3)SC2=S)ccc1O [Compound A33] ; its pIC50: > 5.00

dihydrolipoamide acyltransferase (DlaT) (Mycobacterium tuberculosis) data for CC(C)(C)OC(=O)Nc1ccccc1-c1ccc(C=C2SC(=S)N(c3cc(C(=O)O)ccc3F)C2=O)o1 [Compound A164] ; its pIC50: 4.40 to 4.96

dihydrolipoamide acyltransferase (DlaT) (Mycobacterium tuberculosis) data for O=C(O)c1cccc(N2C(=O)C(=Cc3ccc(-c4ccccc4F)o3)SC2=S)c1 [Compound A138] ; its pIC50: 4.40 to 4.96
